Organism: Oryctolagus cuniculus
protocol_description: In vitro antagonist activity was determined by the ability to antagonize the contractile response to angiotensin II in the isolated rabbit aortic strips
Format: functional
assay_conditions: Aorta
pIC50: −log10 of the molar value.
Label rule, in plain words: pIC50 of 6 and up is 1.0, under 6 is 0.0.

Some entries whose results are on file:
CCCCc1nc(Cl)c(CO)n1Cc1ccc(-c2ccccc2-c2nn[nH]n2)s1 :: 1.0
CCCCc1nc(Cl)c(C=O)n1Cc1ccc(-c2ccccc2C(=O)O)s1 :: 0.0
CCCCc1nc(Cl)c(C=O)n1Cc1ccc(-c2ccccc2-c2nn[nH]n2)s1 :: 1.0

Incoming: Could you verify whether the entry CCCCc1nc(Cl)c(CO)n1Cc1ccc(-c2ccccc2C(=O)O)cc1 shows pIC50 of no less than 6?
Outgoing: 1.0

Incoming: // inclusive: pIC50 at least 6? input: CCCCc1nc(Cl)c(CO)n1Cc1ccc(-c2ccccc2-c2nnn[nH]2)cc1 [LOSARTAN]
Outgoing: 1.0

Incoming: Form field: pIC50 at least 6? Entry: CCCCc1nc(Cl)c(CO)n1Cc1ccc(-c2ccccc2C(=O)O)s1
Outgoing: 0.0
